# TEST_NAME: pKa value was determined by differential pulse polarography
# Format: physicochemical
QUANTITY: pKa

[[record]]
smiles_representation = "CSc1nc2c(O)c3ccccc3nc2s1"
measured_value = 5.9

[[record]]
smiles_representation = "CN1CCN(c2nc3c(O)c4ccccc4nc3s2)CC1"
measured_value = 8.6

[[record]]
smiles_representation = "CSc1nc2c(O)c3cc(F)ccc3nc2s1"
measured_value = 5.7

[[record]]
smiles_representation = "CSc1nc2c(N(C)CCCN(C)C)c3ccccc3nc2s1"
measured_value = 6.5

[[record]]
smiles_representation = "Oc1c2ccccc2nc2sc(Cl)nc12"
measured_value = 5.9

[[record]]
smiles_representation = "CCN(CC)CCCNc1c2cc(C)ccc2nc2sc(SC)nc12"
measured_value = 7.9

[[record]]
smiles_representation = "Cc1ccc2nc3sc(S(C)(=O)=O)nc3c(O)c2c1"
measured_value = 4

[[record]]
smiles_representation = "Cc1ccc2nc3sc(Cl)nc3c(O)c2c1"
measured_value = 5

[[record]]
smiles_representation = "CCN(CC)CCNc1nc2c(O)c3ccccc3nc2s1"
measured_value = 9.3

[[record]]
smiles_representation = "CN1CCN(c2nc3c(O)c4cc(F)ccc4nc3s2)CC1"
measured_value = 8

[[record]]
smiles_representation = "CS(=O)(=O)c1nc2c(O)c3cc(F)ccc3nc2s1"
measured_value = 5.5

[[record]]
smiles_representation = "CCN(CC)CCNc1nc2c(O)c3cc(C)ccc3nc2s1"
measured_value = 8.4

[[record]]
smiles_representation = "CSc1nc2c(O)c3cc(C)ccc3nc2s1"
measured_value = 4.6


* * *

This section presents compounds with their documented IC50 values.
# Test system: A549
# TEST_NAME: In vitro cytotoxicity against A-549 (human lung carcinoma) cell line.
# Format: functional, cell-based
QUANTITY: IC50 (µM)

[[record]]
smiles_representation = "CN1CCN(c2nc3c(O)c4cc(F)ccc4nc3s2)CC1"
study_target = "A549"
quantity = "IC50"
comparative_sign = ">"
measured_value = 56.4

[[record]]
smiles_representation = "CCN(CC)CCNc1nc2c(O)c3cc(F)ccc3nc2s1"
study_target = "A549"
quantity = "IC50"
comparative_sign = "="
measured_value = 2.9

[[record]]
smiles_representation = "CSc1nc2c(O)c3ccccc3nc2s1"
study_target = "A549"
quantity = "IC50"
comparative_sign = ">"
measured_value = 70.2

[[record]]
smiles_representation = "Oc1c2cc(F)ccc2nc2sc(Cl)nc12"
study_target = "A549"
quantity = "IC50"
comparative_sign = "="
measured_value = 7.4

[[record]]
smiles_representation = "Cc1ccc2nc3sc(Cl)nc3c(O)c2c1"
study_target = "A549"
quantity = "IC50"
comparative_sign = "="
measured_value = 34.6

[[record]]
smiles_representation = "CCN(CC)CCCNc1c2cc(C)ccc2nc2sc(SC)nc12"
study_target = "A549"
quantity = "IC50"
comparative_sign = "="
measured_value = 5.4

[[record]]
smiles_representation = "CCN(CC)CCNc1nc2c(O)c3cc(C)ccc3nc2s1"
study_target = "A549"
quantity = "IC50"
comparative_sign = "="
measured_value = 5.6


* * *

# TEST_NAME: pKa value was determined by differential pulse polarography
# Format: physicochemical
We use 8 as the dividing line for pKa: on or above the line is true (1), below is false (0).

[[record]]
smiles_representation = "Cc1ccc2nc3sc(N4CCN(C)CC4)nc3c(O)c2c1"
group = "true (1)"

[[record]]
smiles_representation = "CCN(CC)CCNc1nc2c(O)c3cc(F)ccc3nc2s1"
group = "true (1)"

[[record]]
smiles_representation = "CS(=O)(=O)c1nc2c(O)c3ccccc3nc2s1"
group = "false (0)"

[[record]]
smiles_representation = "Oc1c2cc(F)ccc2nc2sc(Cl)nc12"
group = "false (0)"

[[record]]
smiles_representation = "CCN(CC)CCCNc1c2ccccc2nc2sc(SC)nc12"
group = "false (0)"

